# Test system: RPMI-8226
# experimental.details: NCI tumour cell line growth inhibition, 48 h
Active and inactive are the calls of the source. Rule as the data show it: active = GI50 up to about 1.1 µM and inactive = higher.
Outcomes: Y for active, N for inactive

                                    compound  tested_on  assigned_label
 0  CCOC(=O)NC(=O)c1cn(C2OC(CO)C(O)C2O)c(=O)[nH]c1=O (stereo not drawn)  RPMI-8226               N
 1          O=C1c2cccc(O)c2C(=O)c2c(O)cccc21  RPMI-8226               N
 2  CC(C)NCCC(O)c1cc2ccccc2o1 (stereo not drawn)  RPMI-8226               N
 3                 COc1cccc(-c2cccc(SC)n2)n1  RPMI-8226               N
 4     COc1cccc(-c2cc(O)c3cc4c(cc3n2)OCO4)c1  RPMI-8226               Y
 5  CC1CCC(C(C)C)C(OC(=O)NCn2cc(-c3ccccc3)nn2)C1 (stereo not drawn)  RPMI-8226               N
 6  Cc1c2c(OCCN3CCCCC3)nn(C)c(=O)c2c(C)n1-c1ccccc1  RPMI-8226               N
 7  O=C1c2ccccc2-c2nc(-c3cccs3)cc3c2c1nc1ccccc13  RPMI-8226               N
 8          CN(C)CC[N+]1=Nc2cccc3cccc(c23)N1  RPMI-8226               N
 9  O=C1C2Nc3ccccc3SC2C(=O)N1c1cccc([N+](=O)[O-])c1 (stereo not drawn)  RPMI-8226               N
10  CC(C)(C)OCC1NC(=O)[C@@H]2Cc3c([nH]c4ccccc34)C(C3CCCCC3)N2C1=O (stereo partly drawn)  RPMI-8226               N
11  N#CCCN(c1ccc(/C=N/c2ccccc2Cl)cc1)S(=O)(=O)c1ccccc1  RPMI-8226               N
12  COc1cc(-c2cc(=O)c3c(OC)c(OC)c(OC)c(OC)c3o2)c(OC)c(OC)c1OC  RPMI-8226               N
13                NC(=O)N/N=C1\CCCCc2ccccc21  RPMI-8226               N
14            COc1ccc2cc3nc(O)cc(O)c3cc2c1OC  RPMI-8226               N
15  CCCCCCCC/C=C\CCCCCCC(F)C(=O)O (stereo not drawn)  RPMI-8226               N
16              CN[C@@H](C)[C@@H](N)c1ccccc1  RPMI-8226               N
17  CN(C)CCOc1cc2c(c3ccccc13)-c1ccccc1C2O (stereo not drawn)  RPMI-8226               N
18  O=CC(NC(=O)N(CCCl)N=O)C(O)C(O)C(O)CO (stereo not drawn)  RPMI-8226               N
19  COc1cccc(C2c3cc4c(cc3OC(NNS(=O)(=O)c3ccc(C)cc3)C2C)OCO4)c1O (stereo not drawn)  RPMI-8226               N
20  OC(COc1cccc2ccccc12)CN1CCOCC1 (stereo not drawn)  RPMI-8226               N
21  Nc1ccc(C(=O)NN2C(=O)C(Cl)C2c2cccc(O)c2)cc1 (stereo not drawn)  RPMI-8226               N
22  C[C@]12CC[C@@H]3c4ccc(O)cc4CC[C@H]3[C@@H]1CC[C@@H]2OC(=O)CCc1ccccc1  RPMI-8226               N

* * *

Form field: GI50 (one value per entry).
# System: HOP-92
# experimental.details: NCI tumour cell line growth inhibition, 48 h
Calls of active or inactive are those of the source. No stated cut-off is given here; in the data, active = GI50 up to about 1.1 µM and inactive = higher.
property.label: GI50

>>> print(df.to_string())
                                   compound           meas_value
0             OCCOCn1nncc1Cn1ncc2c(O)ncnc21  > 100 µM (inactive)
1  CC1=NNC(=O)C1C1C=C(c2c[nH]c3ccccc23)OC1=O (stereo not given)  > 100 µM (inactive)
2  C/C(=C\Cc1cc(O)ccc1O)CCc1c(C)c(O)c(O)c(C=O)c1C   15.7 µM (inactive)
3            COc1ccc2cc3nc(O)cc(O)c3cc2c1OC  > 100 µM (inactive)
4  Cc1ccc(-c2nc3cc(F)c(N4CCN(C)CC4)cc3[nH]2)cc1   66.5 µM (inactive)

* * *

# Tested on: T47D
# experimental.details: NCI tumour cell line growth inhibition, 48 h
The source made the active and inactive calls. Cut-off read from the data, not from the text of the source: active = GI50 up to about 1.1 µM and inactive = higher.
Form field: GI50 (one value per entry).
property.label: GI50

>>> print(df.to_string())
                                   molecule           meas_value
0  CC(C)CC1C(=O)NCCC(NC(=O)C(N)Cc2ccc(O)cc2)C(=O)NC(Cc2ccccc2)C(=O)NC(Cc2ccccc2)NC1=O (stereo not drawn)  > 100 µM (inactive)
1  O=C1c2ccccc2C(=O)c2sc(Nc3ccccc3C(F)(F)F)nc21     12 µM (inactive)
2  O=C(CSC1=NC(=O)C2(NN1)c1ccccc1-c1ccccc12)NC(=S)Nc1ccccc1   2.34 µM (inactive)

* * *

Form field: GI50 (one value per entry).
# Tested on: K562
# experimental.details: NCI tumour cell line growth inhibition, 48 h
Calls of active or inactive are those of the source. Cut-off read from the data, not from the text of the source: active = GI50 up to about 1.1 µM and inactive = higher.
property.label: GI50

>>> df
                                    compound           meas_value
 0                        CC#CC(OCC)(OCC)OCC  > 100 µM (inactive)
 1  COC(=O)C1=C(O)CCCC(C2CCCCC(=O)C2C(=O)OC)=C1 (stereo unspecified)   64.3 µM (inactive)
 2  O=C1OC(O)C(Oc2ccc(Cl)cc2)=C1Cl (stereo unspecified)  > 100 µM (inactive)
 3  CCCN1CN(C(C(=O)N[C@@H]2C(=O)N3C2SC(C)(C)C3C(=O)O)c2ccc(O)cc2)CSC1=S (stereo partly specified)   24.4 µM (inactive)
 4                NC(=O)N/N=C1\CCCCc2ccccc21   > 10 µM (inactive)
 5  COC(=O)C(CC(=O)Nc1ccc(Cl)c(Cl)c1)C(=O)C(=O)Nc1ccc(Cl)c(Cl)c1 (stereo unspecified)  > 100 µM (inactive)
 6                    CCN(CC)/[N+]([O-])=N/O  > 100 µM (inactive)
 7  CC(Br)C(=O)NN1C2=C(Nc3ccccc31)c1cccc3cccc2c13 (stereo unspecified)  > 100 µM (inactive)
 8    COc1ccc2cc3n(c2c1)CCc1cc(OC)c(OC)cc1-3  > 100 µM (inactive)
 9       Nc1ncnc2ccc(Sc3ccc4ncnc(N)c4c3)cc12  > 100 µM (inactive)
10  Cc1ccccc1-n1c(=O)sc2c(=O)n(-c3ccccc3)c(=S)[nH]c21  > 100 µM (inactive)

* * *

# System: NCI-H522
# experimental.details: NCI tumour cell line growth inhibition, 48 h
Calls of active or inactive are those of the source. Rule as the data show it: active = GI50 up to about 1.1 µM and inactive = higher.
Outcomes: y (active), n (inactive)

                                   molecule  assigned_label
0  O=C1CCCC/C1=C1/SC(=N/c2ccccc2)/C(=N\c2ccccc2)N1c1ccccc1               n
1             OCCOCn1nncc1Cn1ncc2c(O)ncnc21               n
2  COc1ccc(S(=O)(=O)c2nnc(S(=O)(=O)Cc3ccccc3)s2)cc1               n
3  O=C1c2ccccc2-c2nc(-c3cccs3)cc3c2c1nc1ccccc13               n
4     COc1cccc(-c2cc(O)c3cc4c(cc3n2)OCO4)c1               y
5               CC1(C)C(=O)N(O)C(C)(C)N1N=O               n
6  C=C(C(=C)N1N=NC2C3CCC(C3)C21)N1N=NC2C3CCC(C3)C21 (stereo not given)               n
7  C/C(=C\Cc1cc(O)ccc1O)CCc1c(C)c(O)c(O)c(C=O)c1C               n
8  CN(C)CCNC1=Nc2ccccc2C(=O)N2CSCC12 (stereo not given)               n
9  CC(C)(C)[Si](C)(C)OCC1OC(n2cc(I)c(=O)[nH]c2=O)C(O[Si](C)(C)C(C)(C)C)C1O[Si](C)(C)C(C)(C)C (stereo not given)               n
